Checkbox rule: glass transition temperature lower than 100 °C = class 1; glass transition temperature not lower than 100 °C = class 0.

Would you please look over these solved cases?
{"COMPOUND": "*c1ccc(NC(=O)c2ccc(OCCOc3ccc(C(=O)Nc4ccc5[nH]c(*)nc5c4)cc3)cc2)cc1 (repeat unit)", "GROUP": "class 0"}
{"COMPOUND": "*CCCCCCCCCCOC(=O)c1ccc(-c2ccc(C(=O)O*)cc2)cc1 (repeat unit)", "GROUP": "class 1"}
{"COMPOUND": "*Oc1ccc(C(=O)c2ccc(OC(=O)OC3C(C)(C)C(OC(*)=O)C3(C)C)cc2)cc1 (repeat unit)", "GROUP": "class 0"}
{"COMPOUND": "*c1ccc(Oc2ccc(C3(c4ccc(Oc5ccc(-c6nnc(*)c7c(-c8ccc(F)cc8)c(-c8ccc(F)cc8)c(-c8ccc(F)cc8)c(-c8ccc(F)cc8)c67)cc5)cc4)c4ccccc4-c4ccccc43)cc2)cc1 (repeat unit)", "GROUP": "class 0"}
{"COMPOUND": "*Oc1ccc(Sc2ccc(Oc3ccc(-c4ccc(-c5ccc(-c6ccc(*)c(C(F)(F)F)c6)cc5)cc4)cc3C(F)(F)F)cc2)cc1 (repeat unit)", "GROUP": "class 0"}

Consider now this further compound.
Is glass transition temperature of *Oc1ccc(S(=O)(=O)c2ccc(Oc3ccc(C(c4ccc(*)c([Si](C)(C)C)c4)(C(F)(F)F)C(F)(F)F)cc3[Si](C)(C)C)cc2[Si](C)(C)C)c([Si](C)(C)C)c1 (repeat unit) strictly below 100 °C?
class 0
